Kindly state IC50 for each of the entries shown.
MEASURED TARGET: human EHMT2 913-1193 (Homo sapiens)
Construct: recombinant purified human EHMT2 913-1193, Viva; purchased Viva
Sequence (Q96KQ7 913-1193): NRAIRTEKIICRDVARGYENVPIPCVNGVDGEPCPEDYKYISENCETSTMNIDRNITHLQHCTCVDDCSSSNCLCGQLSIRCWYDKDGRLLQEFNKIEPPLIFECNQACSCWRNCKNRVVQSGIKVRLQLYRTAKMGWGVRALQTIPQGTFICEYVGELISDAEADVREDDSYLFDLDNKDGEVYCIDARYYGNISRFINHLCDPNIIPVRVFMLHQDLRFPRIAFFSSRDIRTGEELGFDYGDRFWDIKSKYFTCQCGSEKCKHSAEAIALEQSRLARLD
METHOD NOTES: biochemical
CONDITION LABEL: recombinant human EHMT2 913-1193, histone H3 1-15 peptide, 3H-SAM, balanced conditions; read-out: EHMT2 PEP (IC50 μM)

**Q:** Name the reported IC50 value associated with the molecule COc1cc2c(cc1OC[C@H](O)CN1CCCC1)nc(NCC1CC1)n2C
**A:** 0.1 to 1 µM

**Q:** Name the reported IC50 value associated with the molecule NC1=Nc2cc(OCCCN3CCCC3)c(OCC3CCCCC3)cc2C12CCC2
**A:** > 10 µM

**Q:** Name the reported IC50 value associated with the molecule CCNC1=Nc2cc(CNCCN3CCC3)c(OC)cc2C12CCC2
**A:** < 0.1 µM

**Q:** Name the reported IC50 value associated with the molecule CCNc1nc2cc(OCCCN3CCCC3)c(OC)cc2n1C
**A:** 0.1 to 1 µM

**Q:** Name the reported IC50 value associated with the molecule COc1cc2c(cc1OCCCN1CCCC1)nc(N)n2C(C)C
**A:** < 0.1 µM

**Q:** Name the reported IC50 value associated with the molecule CCNc1nc2cc(OC[C@H](O)CN3CCCC3)c(OC)cc2n1C
**A:** 0.1 to 1 µM

**Q:** Name the reported IC50 value associated with the molecule COc1cc2c(cc1OCC(O)CN1CCCC1)N=C(N)C21CCC1 (stereo not shown)
**A:** < 0.1 µM

**Q:** Name the reported IC50 value associated with the molecule COc1cc2c(cc1OCCCN1CC[C@H](O)C1)N=C(N)C21CCC1
**A:** < 0.1 µM

**Q:** Name the reported IC50 value associated with the molecule COc1cc2c(cc1OCCCN1CCCC1)N=C(N)C21CCCCC1
**A:** < 0.1 µM

**Q:** Name the reported IC50 value associated with the molecule COc1cc2c(cc1OCCCN)N=C(N)C21CCC1
**A:** 1 to 10 µM

**Q:** Name the reported IC50 value associated with the molecule CNC1=Nc2cc(C#CCN3CCC(F)C3)c(OC)cc2C12CCC2 (stereo not shown)
**A:** 0.1 to 1 µM

**Q:** Name the reported IC50 value associated with the molecule COCCNC1=Nc2cc(C#CCN3CCCCC3)c(OC)cc2C12CCC2
**A:** < 0.1 µM

**Q:** Name the reported IC50 value associated with the molecule COc1cc2c(cc1OCCCN1CCCC1)nc(N)n2CC(F)(F)F
**A:** 0.1 to 1 µM

**Q:** Name the reported IC50 value associated with the molecule NC1=Nc2cc(OCCCN3CCCC3)c(OCc3ccccc3)cc2C12CCC2
**A:** 1 to 10 µM

**Q:** Name the reported IC50 value associated with the molecule COc1cc2sc(N)nc2cc1OCCCN1CCCC1
**A:** 1 to 10 µM

**Q:** Name the reported IC50 value associated with the molecule NC1=Nc2cc(OCCCN3CCCC3)c(OCC3CCOCC3)cc2C12CCC2
**A:** 1 to 10 µM

**Q:** Name the reported IC50 value associated with the molecule COc1cc2c(cc1OCC(C)CN1CCCC1)N=C(N)C21CCC1 (stereo not shown)
**A:** 0.1 to 1 µM

**Q:** Name the reported IC50 value associated with the molecule CNC1=Nc2cc(C#CCN3CC4CC4C3)c(OC)cc2C12CCC2 (stereo not shown)
**A:** < 0.1 µM

**Q:** Name the reported IC50 value associated with the molecule COc1cc2c(cc1OC[C@H](O)CN1CCCC1)nc(NC(C)C)n2C
**A:** 0.1 to 1 µM
